%Inh listing for selected compounds.
# System: LKB1;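 also: KINOMEscan kinase panel screen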
# Construct: gene STK11
# reported_conditions: concentration: 1 μM, replicates: in singlicate; n = 1

{"columns": ["compound", "target_desc", "display_unit", "%Inh"],
 "data": [
  ["CCn1c(-c2ccoc2)nc2cnccc21", "LKB1", "%", 0],
  ["COC(=O)c1c(-c2ccccc2)c2cc(Br)ccc2c(=O)n1Cc1ccc(S(C)(=O)=O)cc1", "LKB1", "%", 0],
  ["Nc1nc(N)c2nc(-c3ccccc3)[nH]c2n1", "LKB1", "%", 0],
  ["O=C(Nc1ccc2c(c1)OCO2)NC1CCN(c2ccnc(NCc3ccc(F)cc3)n2)CC1", "LKB1", "%", 6],
  ["Cc1nn2c(=O)cc(N3CCOCC3)nc2n1Cc1cccc(Cl)c1Cl", "LKB1", "%", 0],
  ["FC(F)(F)c1ccc(-c2ncn(CCCN3CCOCC3)c2-c2ccncc2)cc1", "LKB1", "%", 23],
  ["Nc1ncnc2c1ncn2-c1cccc(F)c1", "LKB1", "%", 4],
  ["COc1cc2ncn(-c3cc(OCc4ccncc4)c(C(N)=O)s3)c2cc1OC", "LKB1", "%", 0],
  ["O=C1NC(=O)C(c2ccccc2)=C1Nc1cccc(O)c1", "LKB1", "%", 0],
  ["CCC(=O)c1c(-c2ccccc2)c2cc(Cl)ccc2c(=O)n1Cc1cc(S(C)(=O)=O)n(CCC(C)(C)O)n1", "LKB1", "%", 3],
  ["Cc1ccccc1COc1cc(-n2cnc3cc(Cl)ccc32)sc1C(N)=O", "LKB1", "%", 0],
  ["Cc1nnc(-c2ccc3ncn(-c4ccc(S(C)=O)cc4)c3c2)o1 (centres unmarked)", "LKB1", "%", 9],
  ["Nc1n[nH]c2nnc(-c3ccccc3)c(-c3ccccc3)c12", "LKB1", "%", 0],
  ["CN1C(=O)C(Nc2cc(Cl)c(O)c(Cl)c2)=C(c2ccc(Cl)cc2)C1=O", "LKB1", "%", 32],
  ["Cc1cccc(-c2cc(-c3c[nH]nc3-c3ccccn3)ccn2)c1", "LKB1", "%", 0],
  ["COc1ccc(-c2cc3c(C)nc(N)nc3n([C@H]3CC[C@H](OCCO)CC3)c2=O)cn1", "LKB1", "%", 40],
  ["O=C(Nc1n[nH]c2cc(-c3ccccc3F)ccc12)C1CC1", "LKB1", "%", 30],
  ["CCC(=O)c1c(-c2ccccc2)c2cc(Cl)ccc2c(=O)n1Cc1cc(C(=O)NC2CC2)n(C)n1", "LKB1", "%", 9],
  ["CC(C)(C)c1ccc(C(=O)Nc2cn3cc(-c4ccccc4)ccc3n2)cc1", "LKB1", "%", 15],
  ["Cc1nnc(-c2ccc(C)c(-c3ccc(C(=O)O)cc3)c2)o1", "LKB1", "%", 5],
  ["COc1cc2ncn(-c3cc(OCCCc4ccccc4)c(C(N)=O)s3)c2cc1OC", "LKB1", "%", 0],
  ["COc1ccc(CNC(=O)NC2CCN(c3ccnc(Nc4ccc(F)cc4)n3)C2)cc1 (centres unmarked)", "LKB1", "%", 13],
  ["CCS(=O)c1ccc(-c2coc3ccc(-c4nnc(C)o4)cc23)cc1 (centres unmarked)", "LKB1", "%", 29],
  ["O=c1cc(N2CCOCC2)nc2n(Cc3ccc(F)c(Cl)c3)ccn12", "LKB1", "%", 0],
  ["CCC(=O)c1c(-c2ccccc2)c2cc(Cl)ccc2c(=O)n1Cc1ccc(C(=O)O)cc1", "LKB1", "%", 1],
  ["Cc1ccc(Oc2ccc(Nc3ncnc4cc[nH]c34)cc2C)cn1", "LKB1", "%", 11],
  ["CCS(=O)(=O)c1ccc(OC)c(Nc2ncc(-c3ccc(F)cc3)o2)c1.Cl", "LKB1", "%", 0],
  ["Cc1ccc(-c2ccc3c(ccc4sc5c(c43)NC[C@@H](C)N=C5N(C)C)n2)cn1", "LKB1", "%", 0],
  ["O=C(Nc1n[nH]c2nc(-c3ccccc3)c(Cl)cc12)C1CC1", "LKB1", "%", 37],
  ["Cc1c(Cn2c(C)nn3c(=O)cc(N4CCO[C@H](C)C4)nc23)cccc1C(F)(F)F", "LKB1", "%", 0],
  ["O=C(NCCNc1ccnc(Nc2ccc(F)cc2)n1)Nc1ccc2c(c1)OCO2", "LKB1", "%", 25],
  ["COc1cc(Nc2ccnc3ccc(C(F)(F)F)cc23)cc(OC)c1OC", "LKB1", "%", 0],
  ["Cn1c(=O)c(F)c(Nc2ccc(I)cc2F)c2c(=O)n(OC[C@H](O)CO)cnc21", "LKB1", "%", 0],
  ["COc1cc(OC)cc(-c2cc3cnc(N)nc3nc2NC(=O)NC(C)(C)C)c1", "LKB1", "%", 0],
  ["Nc1n[nH]c2ncc(-c3ccccc3)cc12", "LKB1", "%", 0],
  ["CCc1ccc(-c2ccc3c(c2)-c2nn(C)cc2S(=O)(=O)N3C)cc1", "LKB1", "%", 21],
  ["CCc1nc(-c2cccc(C)c2)c(-c2ccncc2)s1", "LKB1", "%", 35],
  ["Nc1ncnc2c1ncn2-c1ccc(Cl)cc1", "LKB1", "%", 10]
]}

Origin of measurements: paper PMC5540273
